Reference source for all entries: ChEMBL document CHEMBL1201862

Tested on: OVCAR-5
protocol description: NCI tumour cell line growth inhibition, 48 h
Activity calls are given as the source filed them. Cut-off read from the data, not from the text of the source: active = GI50 up to about 1.1 µM and inactive = higher.
observable: GI50

Fill in: GI50 of Nc1ccc(C(=O)NN2C(=O)C(Cl)C2c2ccc(O)cc2)cc1 (stereo not given) is ___
21.7 µM (inactive)

And then COC1=CC(=O)c2c(c(-c3nc(C)cs3)cn2C)C1=O , what is it?
6.76 µM (inactive)

And then O[C@@H]1CCC[C@@H]2NC[C@@H](c3ccc4c(c3)OCO4)[C@H]12 , what is it?
> 100 µM (inactive)

And then CC1(Cc2cc3c(cc2C2(c4ccc([N+](=O)[O-])cc4)OCCO2)OCO3)OCCO1 , what is it?
> 100 µM (inactive)

And then NC(=S)N/N=C1\NC(=O)/C(=C/c2ccc3c(c2)OCO3)S1 , what is it?
24.2 µM (inactive)

And then CCCC(=O)Nc1cc(C(=O)N2C[C@H]3C[C@@]34C2=CC(=O)c2[nH]cc(C)c24)n(COC)c1 , what is it?
1.16 µM (inactive)

And then COc1ccc(-c2nc(-c3cc4ccccc4oc3=O)cs2)cc1 , what is it?
> 100 µM (inactive)

And then COc1ccc2nc3ccc(OC)cc3c(SCCCl)c2c1 , what is it?
24.8 µM (inactive)

And then COc1ccc2c(c1)[n+]([O-])c(C(=O)CC(=O)C(=O)Nc1cccc(C)c1C)c(C)[n+]2[O-] , what is it?
> 100 µM (inactive)

And then O=C(Oc1ccc(S(=O)(=O)F)cc1F)c1ccccc1Cl , what is it?
30.9 µM (inactive)

---

Tested on: U-251
protocol description: NCI tumour cell line growth inhibition, 48 h
Structures can show the parent of a compound that is named as a salt. Calls of active or inactive are those of the source. No stated cut-off is given here; in the data, active = GI50 up to about 1.1 µM and inactive = higher.
Just give me one of these, please: active, inactive

Field: outcome | Entry: Cc1ccccc1NC(=S)N/N=C1\C(=O)Nc2ccccc21
inactive

And then CNC(=O)OCc1nccc2c(C)c3[nH]c4ccc(OC)cc4c3cc12 , what is it?
inactive

And then O=C(CSc1nc2ccc([N+](=O)[O-])cc2s1)c1ccc2ccccc2c1 , what is it?
inactive

And then CCN(CC)CCCNc1nncc2c(C)c3[nH]c4ccccc4c3cc12 , what is it?
active

And then CN(C)CCNC(=O)c1ccc(Cl)c2c(Nc3ccc(S(=O)(=O)N=C(N)N)cc3)c3ccccc3nc12 , what is it?
inactive

And then [O-][Cl+3]([O-])([O-])O.c1ccc(/N=c2\nc(N3CCOCC3)ss2)cc1 , what is it?
inactive

And then BrCc1ccc(CBr)c2c1-c1c(CBr)ccc3ccc(CBr)c-2c13 , what is it?
inactive

And then COC(=O)CCCC(=O)NC1=C(NCc2ccccc2)C(=O)c2ccccc2C1=O , what is it?
inactive

And then C=C(c1ccccc1)[C@@]1(O)CCCC[C@H]1NC(c1ccccc1)c1ccccc1 , what is it?
inactive

And then COc1ccc(-c2cc(N3CCN(c4ccc(Cl)cc4)CC3)c(C#N)c(=O)o2)cc1 , what is it?
inactive

And then Cc1ccc2c(=O)c(C(=O)NNC(=S)NC3CCCCC3)c[nH]c2n1 , what is it?
inactive

And then c1ccc2c(CN3CCN(Cc4c[nH]c5ccccc45)CC3)c[nH]c2c1 , what is it?
inactive

And then COC(=O)[C@@H](N1C(=O)c2ccccc2C1=O)C1(C)CC(Cl)=NO1 (stereo not given in full) , what is it?
inactive

And then O=C1c2c(O)cccc2-c2nn(CCNCCO)c3ccc(NCCNCCO)c1c23 [LOSOXANTRONE HYDROCHLORIDE] , what is it?
active

And then COc1cccc(-c2nc(O)c3ccccc3n2)c1 , what is it?
inactive

And then C=CCOc1ccc(C2c3c(n[nH]c3O)CC(O)(OCC)C2C(=O)OCC)cc1OC (stereo not given) , what is it?
inactive

And then COc1ccc(S(=O)(=O)c2ccccc2[N+](=O)[O-])cc1 , what is it?
inactive

And then COC(=O)[C@]1(C)CCCC2(C)C1CC[C@H]1C=C(C)[C@H]3CCC12C3 (stereo not given in full) , what is it?
inactive

And then C/C=C1/C(=Cc2[nH]c(C=c3[nH]/c(=C/C4=NC(=O)C(CC)=C4C)c(C)c3CCC(=O)O)c(CCC(=O)O)c2C)NC(=O)C1C (stereo not given) , what is it?
inactive

And then O=C1CSC(c2c[nH]c3ccccc23)N1c1ccccc1[N+](=O)[O-] (stereo not given) , what is it?
inactive
